Each recorded value in this set is attributed to patent US20240368133A1.

measuredOn: human AT2R fused to Cb23 (Homo sapiens, UniProt P50052)
Sequence (P50052 whole entry, looked up, the tested form may be a part): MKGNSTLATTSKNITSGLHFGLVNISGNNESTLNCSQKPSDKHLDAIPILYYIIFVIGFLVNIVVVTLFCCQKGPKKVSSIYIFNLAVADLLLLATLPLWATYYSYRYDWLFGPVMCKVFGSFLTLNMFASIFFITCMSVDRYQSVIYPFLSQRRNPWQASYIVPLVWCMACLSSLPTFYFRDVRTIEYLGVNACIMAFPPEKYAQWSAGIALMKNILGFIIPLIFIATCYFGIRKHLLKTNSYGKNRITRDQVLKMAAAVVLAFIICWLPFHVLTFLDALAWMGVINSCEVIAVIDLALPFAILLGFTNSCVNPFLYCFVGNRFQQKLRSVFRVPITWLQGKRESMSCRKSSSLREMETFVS
experiment: Radioligand binding assay, displacement of 125I-[Sar1, Ile8]-Angiotensin II, hAT2R Cb23
cond: displacement of 125I-[Sar1, Ile8]-Angiotensin II, human AT2R fused to Cb23, HEK-293 cell membrane preparations; read-out: Binding affinity on hAT2R_Cb23 IC50
I'd appreciate it if you marked entries Condition met when IC50 is lower than 10 µM and Condition not met when it is not.

Could you please tell me whether IC50 recorded for CNc1cc(-c2nn[nH]n2)c(N2CCN(Cc3cccnn3)CC2)cc1CC(C)C is less than 10 µM? Condition not met

Could you please tell me whether IC50 recorded for CC(C)Cc1cc(F)c(-c2nn[nH]n2)c(N2CC3CN(Cc4cccnn4)CC3C2)c1 (stereo not shown) is less than 10 µM? Condition met

Could you please tell me whether IC50 recorded for CCCOc1ccc(C(=O)NS(=O)(=O)CC)c(N2CCN(Cc3nc4ccccc4s3)CC2)c1 is less than 10 µM? Condition not met

Could you please tell me whether IC50 recorded for CC(C)Cc1cc(F)c(-c2nn[nH]n2)c(N2CCN(Cc3cccnn3)C(C)(C)C2)c1 is less than 10 µM? Condition met

Could you please tell me whether IC50 recorded for CCS(=O)(=O)NC(=O)c1ccc(OCC(C)C)cc1N1CCN(Cc2nc3ccccc3s2)CC1 is less than 10 µM? Condition met

Could you please tell me whether IC50 recorded for Cc1cc(-c2nn[nH]n2)c(N2CCN(Cc3cccnn3)CC2)cc1CC(C)C is less than 10 µM? Condition not met

Could you please tell me whether IC50 recorded for CC(C)Cc1cc(F)c(-c2nn[nH]n2)c(N2CCN(C(=O)c3ccccn3)[C@@H](C)C2)c1 is less than 10 µM? Condition met

Could you please tell me whether IC50 recorded for CC(C)Cc1cc(F)c(-c2nn[nH]n2)c(N2CCN(Cc3cccnn3)CC2)c1 is less than 10 µM? Condition met

Could you please tell me whether IC50 recorded for CC(C)Oc1ccc(-c2nn[nH]n2)c(CN2CCN(c3nc4ccccc4s3)CC2)c1 is less than 10 µM? Condition not met

Could you please tell me whether IC50 recorded for c1ccc2sc(CN3CCN(c4cc(C5CC5)ncc4-c4nn[nH]n4)CC3)nc2c1 is less than 10 µM? Condition not met

Could you please tell me whether IC50 recorded for CCCN(C(=O)c1cccs1)c1ccc2nc(CC)n(CC3CCN(c4ccccc4-c4nn[nH]n4)CC3)c(=O)c2c1 is less than 10 µM? Condition met

Could you please tell me whether IC50 recorded for Cc1nccc(CN2CCN(c3cc(CC(C)C)ccc3-c3nn[nH]n3)CC2)n1 is less than 10 µM? Condition not met

Could you please tell me whether IC50 recorded for CC(C)Cc1ccc(-c2nn[nH]n2)c(N2CCN(Cc3cc(=O)n4ccccc4n3)CC2)c1 is less than 10 µM? Condition met

Could you please tell me whether IC50 recorded for CCOc1ccc(C(=O)NS(=O)(=O)CC)c(N2CCN(Cc3nc4ccccc4s3)CC2)c1 is less than 10 µM? Condition met

Could you please tell me whether IC50 recorded for CC(C)Cc1ccc(-c2nn[nH]n2)c(N2CCN(Cc3cc(=O)n4c(ccn4C)n3)CC2)c1 is less than 10 µM? Condition not met

Could you please tell me whether IC50 recorded for Cc1cc(-c2nn[nH]n2)c(N2CCN(Cc3nc4ccccc4s3)CC2)cc1C1CC1 is less than 10 µM? Condition not met
